Source: ChEMBL document CHEMBL3580549

System: SK-OV-3
Assay: Cytotoxicity against human SKOV3 cells by SRB assay
Assay type: functional, cell-based
pIC50: −log10 of the molar value.
Result type: pIC50

- COc1cc(C[C@@H]2CO[C@@H](c3ccc(O)c(OC)c3)[C@@H]2CO[C@@H]2O[C@@H](C)[C@H](O)[C@@H](O)[C@H]2O)ccc1O: < 5.00
- COc1cc([C@H]2c3c(cc(OC)c(O)c3OC)C[C@@H](CO)[C@@H]2CO[C@@H]2O[C@H](CO)[C@@H](O)[C@H](O)[C@H]2O)cc(OC)c1O: < 5.00
- COc1cc([C@H]2c3c(cc(OC)c(O)c3OC)C[C@@H](CO)[C@@H]2CO[C@@H]2O[C@@H](C)[C@H](O)[C@@H](O)[C@H]2O)cc(OC)c1O: < 5.00

---

Recorded viability at 20 µM, one value per entry.
Experiment: Cytotoxicity against mouse BV2 cells assessed as cell viability at 20 uM by MTT assay relative to control
Format: cell-based, BV-2
Settings: read-out: Activity
Result type: viability at 20 µM (%)

• COc1cc(C[C@H](CO)[C@@H](CO[C@@H]2O[C@@H](C)[C@H](O)[C@@H](O)[C@H]2O)Cc2cc(OC)c(O)c(OC)c2)cc(OC)c1O = 104
• COc1cc(C[C@@H]2CO[C@@H](c3cc(OC)c(O)c(OC)c3)[C@@H]2CO[C@@H]2O[C@@H](C)[C@H](O)[C@@H](O)[C@H]2O)cc(OC)c1O = 97.1
• COc1cc([C@H]2Oc3c(OC)cc(CCCO)cc3[C@@H]2CO[C@@H]2O[C@H](CO)[C@@H](O)[C@H](O)[C@H]2O)ccc1O = 97.2
• COc1cc([C@H]2Oc3c(OC)cc(CCCO)cc3[C@@H]2CO[C@@H]2O[C@@H](C)[C@H](O)[C@@H](O)[C@H]2O)cc(OC)c1O = 98.2
• CNC(=N)NCCC[C@H](N)C(=O)O [TILARGININE] = 106
• COc1cc([C@H]2c3c(cc(OC)c(O)c3OC)C[C@@H](CO)[C@@H]2CO[C@@H]2O[C@H](CO)[C@@H](O)[C@H](O)[C@H]2O)cc(OC)c1O = 99.7
• COc1cc([C@H]2c3cc(O)c(OC)cc3C[C@@H](CO)[C@@H]2CO[C@@H]2O[C@@H](C)[C@H](O)[C@@H](O)[C@H]2O)ccc1O [AVICULIN] = 96.1

---

Assay: Cytotoxicity against mouse BV2 cells assessed as cell viability at 20 uM by MTT assay relative to control
Assay type: cell-based, BV-2
Details: read-out: Activity
Consider the following molecules and their measured viability at 20 µM readings.
Result type: viability at 20 µM (%)

- COc1cc([C@H]2c3c(cc(OC)c(O)c3OC)C[C@@H](CO)[C@@H]2CO[C@@H]2O[C@@H](C)[C@H](O)[C@@H](O)[C@H]2O)cc(OC)c1O: 99.1
- COc1cc([C@H]2Oc3c(OC)cc(CCCO)cc3[C@@H]2CO[C@@H]2O[C@@H](C)[C@H](O)[C@@H](O)[C@H]2O)ccc1O: 97.4
- COc1cc(C[C@H]2CO[C@@H](c3cc(OC)c(O)c(OC)c3)[C@H]2CO[C@@H]2O[C@@H](C)[C@H](O)[C@@H](O)[C@H]2O)cc(OC)c1O: 113
- COc1cc(C[C@@H]2CO[C@@H](c3ccc(O)c(OC)c3)[C@@H]2CO[C@@H]2O[C@@H](C)[C@H](O)[C@@H](O)[C@H]2O)ccc1O: 102
- COc1cc([C@@H]2Oc3c(OC)cc(CCCO)cc3[C@H]2CO[C@@H]2O[C@@H](C)[C@H](O)[C@@H](O)[C@H]2O)cc(OC)c1O: 104

---

Tested on: SK-OV-3
Test: Cytotoxicity against human SKOV3 cells by SRB assay
Assay type: functional, cell-based
Entries and their IC50
Result type: IC50

• COc1cc([C@H]2Oc3c(OC)cc(CCCO)cc3[C@@H]2CO[C@@H]2O[C@@H](C)[C@H](O)[C@@H](O)[C@H]2O)cc(OC)c1O = > 10 µM
• COc1cc([C@H]2c3cc(O)c(OC)cc3C[C@@H](CO)[C@@H]2CO[C@@H]2O[C@@H](C)[C@H](O)[C@@H](O)[C@H]2O)ccc1O = > 10 µM
• COc1cc(C[C@H](CO)[C@@H](CO[C@@H]2O[C@@H](C)[C@H](O)[C@@H](O)[C@H]2O)Cc2cc(OC)c(O)c(OC)c2)cc(OC)c1O = > 10 µM
